Recorded inhibition at 1 µM by entry
target: MAGL (Mus musculus (Mouse)); test: In vitro competitive activity-based protein profiling, MAGL (mouse); assay type: biochemical; settings: 1 μM, read-out: MAGL % inh. 1 μM (mouse)

>  <compound>
CC(=O)N(C)c1cnn(C(=O)N2CCC3(CCN(Cc4ccc(N5CCOCC5)cc4Cl)C3)C2)c1 (stereo not shown) [Example 4]

>  <inhibition at 1 µM>
≥ 75%

$$$$
>  <compound>
CS(=O)(=O)Nc1cnn(C(=O)N2CCC3(CCN(Cc4cc(Cl)cc(C(F)(F)F)c4)C3)C2)c1 (stereo not shown) [Example 286]

>  <inhibition at 1 µM>
25 to 50%

$$$$
>  <compound>
COc1cccc(CN2CC3(CCN(C(=O)n4cc(N(C)C(C)=O)cn4)CC3)C2)c1 [Example 37]

>  <inhibition at 1 µM>
50 to 75%

$$$$
>  <compound>
CC(=O)N(C)c1cnn(C(=O)N2CC3CN(Cc4cc(C(F)(F)F)ccc4Cl)CC3C2)c1 (stereo not shown) [Example 106]

>  <inhibition at 1 µM>
≥ 75%

$$$$
>  <compound>
CC(=O)N(C)c1cnn(C(=O)N2CCC3(CCN(Cc4ccc(C(F)(F)F)c(N5CCOCC5)c4)C3)C2)c1 (stereo not shown) [Example 61]

>  <inhibition at 1 µM>
≥ 75%

$$$$
>  <compound>
COc1ccccc1CN1CC2CN(C(=O)n3cc(N(C)C(C)=O)cn3)CC2C1 (stereo not shown) [Example 183]

>  <inhibition at 1 µM>
0 to 25%

$$$$
>  <compound>
CC(=O)N(C)c1cnn(C(=O)N2CCC3(CC2)CN(Cc2ccc(N4CCOCC4)cc2Cl)C3)c1 [Example 28]

>  <inhibition at 1 µM>
≥ 75%

$$$$
>  <compound>
CS(=O)(=O)Nc1cnn(C(=O)N2CCC3(CCN(Cc4cc(Cl)ccc4C(F)(F)F)C3)CC2)c1 [Example 276]

>  <inhibition at 1 µM>
≥ 75%

$$$$
>  <compound>
CC(=O)N(C)c1cnn(C(=O)N2C[C@H]3C[C@H](NCc4ccccc4Cl)C[C@H]3C2)c1 [Example 136]

>  <inhibition at 1 µM>
≥ 75%

$$$$
>  <compound>
CC(=O)N(C)c1cnn(C(=O)N2CCC3(CC2)CN(Cc2cccc(C(F)(F)F)c2)C3)c1 [Example 38]

>  <inhibition at 1 µM>
≥ 75%

$$$$
>  <compound>
CC(=O)N(C)c1cnn(C(=O)N2CC3(CCN(Cc4ccccc4Cl)CC3)C2)c1 [Example 86]

>  <inhibition at 1 µM>
50 to 75%

$$$$
>  <compound>
CC(=O)N(C)c1cnn(C(=O)N2C[C@H]3C[C@@H](N(Cc4ccc(Cl)cc4)C(C)=O)C[C@H]3C2)c1 [Example 171]

>  <inhibition at 1 µM>
≥ 75%

$$$$
>  <compound>
CC(=O)N(C)c1cnn(C(=O)N2CCN(Cc3cccc(N4CCOCC4)c3)CC2)c1 [Example 210]

>  <inhibition at 1 µM>
≥ 75%

$$$$
>  <compound>
CC(=O)N(C)c1cnn(C(=O)N2CCN(Cc3ccccc3N3CCCC3)CC2)c1 [Example 215]

>  <inhibition at 1 µM>
≥ 75%

$$$$
>  <compound>
CC(=O)N(C)c1cnn(C(=O)N2C[C@H]3C[C@H](N(C)Cc4ccc(N5C6CCC5COC6)cc4C(F)(F)F)C[C@H]3C2)c1 [Example 155]

>  <inhibition at 1 µM>
≥ 75%

$$$$
>  <compound>
CC(=O)N(C)c1cnn(C(=O)N2CCC3(CC2)CN(Cc2ccccc2Cl)C3)c1 [Example 40]

>  <inhibition at 1 µM>
≥ 75%

$$$$
>  <compound>
CC(=O)N(C)c1cnn(C(=O)N2CC3CN(Cc4ccc(Cl)cc4Cl)CC3C2)c1 (stereo not shown) [Example 113]

>  <inhibition at 1 µM>
≥ 75%

$$$$
>  <compound>
CC(=O)N(C)c1cnn(C(=O)N2CC3CN(Cc4cccc(F)c4)CC3C2)c1 (stereo not shown) [Example 180]

>  <inhibition at 1 µM>
50 to 75%

$$$$
>  <compound>
CC(=O)N(C)c1cnn(C(=O)N2CC3CN(Cc4ccc(N5C6CCC5COC6)cc4C(F)(F)F)CC3C2)c1 (stereo not shown) [Example 102]

>  <inhibition at 1 µM>
≥ 75%

$$$$
>  <compound>
CS(=O)(=O)Nc1cnn(C(=O)N2CCN(Cc3cccc(Oc4ccc(Cl)cc4)c3)CC2)c1 [Example 296]

>  <inhibition at 1 µM>
≥ 75%

$$$$
>  <compound>
CC(=O)N(C)c1cnn(C(=O)N2CC3CN(Cc4ccccc4Cl)CC3C2)c1 (stereo not shown) [Example 9]

>  <inhibition at 1 µM>
≥ 75%

$$$$
>  <compound>
CC(=O)N(C)c1cnn(C(=O)N2CC3CN(Cc4cccc(N5CCOCC5)c4)CC3C2)c1 (stereo not shown) [Example 121]

>  <inhibition at 1 µM>
≥ 75%

$$$$
>  <compound>
CC(=O)N(C)c1cnn(C(=O)N2CCC3(CCN(Cc4ccccc4N4CCOCC4)C3)C2)c1 (stereo not shown) [Example 62]

>  <inhibition at 1 µM>
0 to 25%

$$$$
>  <compound>
CC(=O)N(C)c1cnn(C(=O)N2CC3CN(Cc4ccc(Oc5cncnc5)cc4C(F)(F)F)CC3C2)c1 (stereo not shown) [Example 265]

>  <inhibition at 1 µM>
≥ 75%

$$$$
>  <compound>
CC(=O)N(C)c1cnn(C(=O)N2CCC3(CCN(Cc4cccc(Cl)c4C)C3)C2)c1 (stereo not shown) [Example 57]

>  <inhibition at 1 µM>
≥ 75%

$$$$
>  <compound>
CC(=O)N(C)c1cnn(C(=O)N2CCN(Cc3ccccc3C(F)(F)F)CC2)c1 [Example 214]

>  <inhibition at 1 µM>
≥ 75%

$$$$
>  <compound>
CC(=O)N(C)c1cnn(C(=O)N2CCC3(CCN(Cc4ccc(-c5ccccc5)cc4C)C3)C2)c1 (stereo not shown) [Example 232]

>  <inhibition at 1 µM>
≥ 75%

$$$$
>  <compound>
CC(=O)N(C)c1cnn(C(=O)N2C[C@H]3C[C@H](N(C)Cc4cc(N5C6CCC5COC6)cc(C(F)(F)F)c4)C[C@H]3C2)c1 [Example 157]

>  <inhibition at 1 µM>
≥ 75%

$$$$
>  <compound>
CC(=O)N(C)c1cnn(C(=O)N2CCC3(CC2)CN(Cc2ccc(N4CCCC4)cc2)C3)c1 [Example 25]

>  <inhibition at 1 µM>
≥ 75%

$$$$
>  <compound>
CC(=O)N(C)c1cnn(C(=O)N2CC3CN(Cc4ccc5c(c4)OC(F)(F)O5)CC3C2)c1 (stereo not shown) [Example 242]

>  <inhibition at 1 µM>
≥ 75%

$$$$
>  <compound>
CC(=O)N(C)c1cnn(C(=O)N2CCC3(CCN(Cc4ccc(Cl)cc4)C3)CC2)c1 [Example 188]

>  <inhibition at 1 µM>
≥ 75%

$$$$

----------
Molecular target: MAGL (Mus musculus (Mouse), UniProt O35678)
Sequence (O35678 whole entry): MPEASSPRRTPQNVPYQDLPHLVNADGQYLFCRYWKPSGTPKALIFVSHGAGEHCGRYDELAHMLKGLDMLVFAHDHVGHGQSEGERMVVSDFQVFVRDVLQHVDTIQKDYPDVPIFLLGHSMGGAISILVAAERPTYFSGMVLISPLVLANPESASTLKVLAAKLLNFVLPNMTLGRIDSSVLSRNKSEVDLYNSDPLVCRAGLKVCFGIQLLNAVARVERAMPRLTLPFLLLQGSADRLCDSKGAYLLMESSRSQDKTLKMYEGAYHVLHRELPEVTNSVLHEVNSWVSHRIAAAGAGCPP
Assay: In vitro competitive activity-based protein profiling, MAGL (mouse)
Format: biochemical
Details: 1 μM, read-out: MAGL % inh. 1 μM (mouse)
Experimental: In Vitro Competitive Activity-Based Protein Profiling. Proteomes (mouse brain membrane fraction or cell lysates for mouse assays; human prefrontal cortex or cell membrane fractions for human assays) (50 μL, 1.0 mg/mL total protein concentration) were preincubated with varying concentrations of inhibitors at 37° C. […] Following gel imaging, serine hydrolase activity was determined by measuring fluorescent intensity of gel bands corresponding to MAGL and FAAH using ImageJ 1.43u software.
As shown below, each of these molecules has a reported inhibition at 1 µM value.

>  <molecule>
COc1cc(-c2ccccc2)ccc1CN1CCN(C(=O)n2cc(NS(C)(=O)=O)cn2)CC1

>  <inhibition at 1 µM>
≥ 75%

$$$$
>  <molecule>
CC(=O)N(C)c1cnn(C(=O)N2CC3CN(Cc4ccc(-c5ccncn5)cc4Cl)CC3C2)c1 (centres unmarked)

>  <inhibition at 1 µM>
≥ 75%

$$$$
>  <molecule>
CC(=O)N(C)c1cnn(C(=O)N2CCN(Cc3ccc(N4CCOCC4)cc3C)CC2)c1

>  <inhibition at 1 µM>
≥ 75%

$$$$
>  <molecule>
CC(=O)N(C)c1cnn(C(=O)N2CCN(Cc3ccc(CN4CCOCC4)cc3)CC2)c1

>  <inhibition at 1 µM>
50 to 75%

$$$$
>  <molecule>
CC(=O)N(C)c1cnn(C(=O)N2CC3CN(Cc4ccc(-c5cncnc5)cc4Cl)CC3C2)c1 (centres unmarked)

>  <inhibition at 1 µM>
≥ 75%

$$$$
>  <molecule>
CC(=O)N(C)c1cnn(C(=O)N2CC3CN(Cc4ccc(N5CC6CCC(C5)O6)cc4C(F)(F)F)CC3C2)c1 (centres unmarked)

>  <inhibition at 1 µM>
≥ 75%

$$$$
>  <molecule>
CS(=O)(=O)Nc1cnn(C(=O)N2CC3CN(Cc4ccccc4Cl)CC3C2)c1 (centres unmarked)

>  <inhibition at 1 µM>
0 to 25%

$$$$
>  <molecule>
COc1ccccc1CN1CC2(CCN(C(=O)n3cc(N(C)C(C)=O)cn3)CC2)C1

>  <inhibition at 1 µM>
≥ 75%

$$$$
